# STUDY_TARGET: UniProtKB P35968
# Sequence (P35968 20-1356): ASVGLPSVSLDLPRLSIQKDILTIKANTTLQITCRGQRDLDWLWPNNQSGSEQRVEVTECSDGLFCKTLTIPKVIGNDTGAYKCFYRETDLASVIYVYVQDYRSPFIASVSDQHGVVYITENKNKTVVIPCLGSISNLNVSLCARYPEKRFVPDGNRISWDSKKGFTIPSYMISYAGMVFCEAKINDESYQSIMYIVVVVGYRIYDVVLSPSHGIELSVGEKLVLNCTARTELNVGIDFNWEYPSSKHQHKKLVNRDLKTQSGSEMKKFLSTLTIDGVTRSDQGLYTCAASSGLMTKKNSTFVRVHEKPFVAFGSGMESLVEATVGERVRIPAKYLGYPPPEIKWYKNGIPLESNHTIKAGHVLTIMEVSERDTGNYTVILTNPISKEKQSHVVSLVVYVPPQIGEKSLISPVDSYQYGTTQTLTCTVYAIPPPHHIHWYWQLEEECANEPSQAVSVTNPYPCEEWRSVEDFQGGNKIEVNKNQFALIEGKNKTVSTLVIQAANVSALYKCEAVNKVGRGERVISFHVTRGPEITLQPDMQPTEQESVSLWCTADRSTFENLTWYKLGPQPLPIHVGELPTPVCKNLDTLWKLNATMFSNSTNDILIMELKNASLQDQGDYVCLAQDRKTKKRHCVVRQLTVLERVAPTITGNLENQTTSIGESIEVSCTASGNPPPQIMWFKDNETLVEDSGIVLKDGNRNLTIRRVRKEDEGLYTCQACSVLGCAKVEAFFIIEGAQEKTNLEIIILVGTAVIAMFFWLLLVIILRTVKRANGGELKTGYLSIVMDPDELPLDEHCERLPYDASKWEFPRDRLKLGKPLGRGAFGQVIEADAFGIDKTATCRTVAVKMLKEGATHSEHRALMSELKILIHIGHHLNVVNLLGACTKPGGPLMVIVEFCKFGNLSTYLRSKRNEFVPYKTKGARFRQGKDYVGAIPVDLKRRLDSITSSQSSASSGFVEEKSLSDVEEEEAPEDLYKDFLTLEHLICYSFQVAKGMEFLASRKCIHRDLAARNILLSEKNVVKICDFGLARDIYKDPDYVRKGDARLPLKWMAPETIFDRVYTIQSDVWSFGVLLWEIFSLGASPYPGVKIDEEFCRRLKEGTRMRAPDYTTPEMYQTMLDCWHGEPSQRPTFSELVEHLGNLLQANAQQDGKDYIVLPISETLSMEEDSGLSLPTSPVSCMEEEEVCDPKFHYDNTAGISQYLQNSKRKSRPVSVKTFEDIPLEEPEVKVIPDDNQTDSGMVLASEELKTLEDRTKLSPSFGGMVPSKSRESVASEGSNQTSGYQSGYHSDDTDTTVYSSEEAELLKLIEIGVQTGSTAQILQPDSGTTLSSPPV
# METHOD_DESCRIPTION: VEGFR-2 kinase assay (Biological Experiment 5, HTRF)
# CONDITION_PARAMETERS: mean IC50; recombinant VEGFR-2, 10 μM ATP; read-out: Inhibition of VEGFR-2 kinase
# Excerpt: Biological Experiment 5: VEGFR-2 Kinase Assay Recombinant VEGFR-2 protein was expressed in E. coli and purified. As kinase substrate, a biotinylated peptide with the amino acid sequence biotin-DFGLARDMYDKEYYSVG was used, which was obtained from Biosynthan. […]
REPORTED_METRIC: IC50

Tell me its IC50 on UniProtKB P35968: `Nc1n[nH]c2nc(C3CC3)cc(-c3ccc(NC(=O)Nc4ccccc4F)cc3)c12`
500 to 2000 nM

Quote UniProtKB P35968 IC50 for entry `Cc1ccc(C(=O)Nc2ccc(-c3cc(C(C)(C)C)nc4[nH]nc(N)c34)cc2)cc1` .
500 to 2000 nM

Please tell me the measured IC50 for `Cc1cccc(NC(=O)Nc2ccc(-c3cc(C(C)(C)C)nc4[nH]nc(N)c34)cc2)c1` ; system: UniProtKB P35968.
500 to 2000 nM

Identify measured IC50 obtained with UniProtKB P35968 for `CC(C)c1cc(-c2ccc(NC(=O)Nc3cccc(C(F)(F)F)c3)cc2)c2c(N)n[nH]c2n1` .
≤ 500 nM

Fill in IC50 for `CC(C)(C)c1cc(-c2ccc(NC(=O)Nc3ccccc3)cc2)c2c(N)n[nH]c2n1` tested with UniProtKB P35968.
500 to 2000 nM

// output IC50; input `CC(C)(C)c1cc(-c2ccc(NC(=O)Nc3cccc(C(F)(F)F)c3)cc2)c2c(N)n[nH]c2n1` ; system UniProtKB P35968
≤ 500 nM

Report its IC50 with UniProtKB P35968 as the test system: `CC(C)(C)c1cc(-c2ccc(NC(=O)Nc3cc(C(F)(F)F)ccc3F)cc2)c2c(N)n[nH]c2n1`
≤ 500 nM

Give measured IC50 for `Nc1n[nH]c2nc(C3CC3)cc(-c3ccc(NC(=O)Nc4ccccc4)cc3)c12` (UniProtKB P35968).
≤ 500 nM
